The measurements presented in this section are drawn from paper PMC8585037.

test: Pharmacokinetic studies: drug concentrations in mouse blood and brain tissue; settings: C57BL/6, mouse, whole blood, ip, […]
outcome_measure: half-life

# lookup: half-life of CNC(C)Cc1cccs1 (stereo not shown) [methiopropamine, 1-(thiophen-2-yl)-2-methylaminopropane]
~31 min

====

molecular target: SERT (Rattus norvegicus); construct: Synaptosomes from rat cerebrum were isolated as described by Bogen et al; experiment: Synaptosomal uptake of [3H]5-HT in rat brain synaptosomes; settings: IC50 Synaptosomes [3H]5-HT Uptake via SERT
Sequence (P31652 whole entry): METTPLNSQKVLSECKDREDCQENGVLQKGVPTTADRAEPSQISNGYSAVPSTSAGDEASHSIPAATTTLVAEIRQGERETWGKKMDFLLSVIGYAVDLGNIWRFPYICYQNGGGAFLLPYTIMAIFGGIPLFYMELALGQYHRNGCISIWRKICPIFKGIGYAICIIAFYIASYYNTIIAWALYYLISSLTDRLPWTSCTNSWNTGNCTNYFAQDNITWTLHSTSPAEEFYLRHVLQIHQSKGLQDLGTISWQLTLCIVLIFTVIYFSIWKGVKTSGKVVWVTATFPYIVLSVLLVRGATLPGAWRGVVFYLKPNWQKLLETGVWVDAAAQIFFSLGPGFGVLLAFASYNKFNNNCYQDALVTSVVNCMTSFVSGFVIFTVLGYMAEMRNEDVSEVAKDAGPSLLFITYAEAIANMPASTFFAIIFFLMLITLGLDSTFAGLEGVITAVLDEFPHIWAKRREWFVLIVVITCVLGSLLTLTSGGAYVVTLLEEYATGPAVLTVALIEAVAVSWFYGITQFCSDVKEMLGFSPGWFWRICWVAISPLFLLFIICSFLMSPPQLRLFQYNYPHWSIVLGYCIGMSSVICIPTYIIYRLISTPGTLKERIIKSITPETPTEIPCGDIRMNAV
outcome_measure: IC50 (µM)
# value in µM; strip the unit string

Record CNC(C)Cc1cccs1 (stereo not shown) [methiopropamine, 1-(thiophen-2-yl)-2-methylaminopropane] : what is its IC50 with SERT (Rattus norvegicus)?
25.1

====

test: Pharmacokinetic studies: drug concentrations in mouse blood and brain tissue; settings: C57BL/6, mouse, brain, ip, 3.75 mg/kg
outcome_measure: half-life

Would you mind telling me what half-life value was observed for CN[C@@H](C)Cc1ccccc1 [methamphetamine] ?
~45 min

====

assay: Pharmacokinetic studies: drug concentrations in mouse blood and brain tissue; details: C57BL/6, mouse, whole blood, ip, 3.75 mg/kg
outcome_measure: half-life

Record request: half-life value, item CN[C@@H](C)Cc1ccccc1 [methamphetamine]
~36 min

====

assay: Pharmacokinetic studies: drug concentrations in mouse blood and brain tissue; details: C57BL/6, mouse, brain, ip, […]
outcome_measure: half-life

Recorded half-life of CNC(C)Cc1cccs1 (stereo not shown) , please.
~35 min

====

biological target: DAT (Rattus norvegicus, UniProt P23977); construct: Synaptosomes from rat cerebrum were isolated as described by Bogen et al; test: Synaptosomal uptake of [3H]DA in rat brain synaptosomes
Sequence (P23977 whole entry): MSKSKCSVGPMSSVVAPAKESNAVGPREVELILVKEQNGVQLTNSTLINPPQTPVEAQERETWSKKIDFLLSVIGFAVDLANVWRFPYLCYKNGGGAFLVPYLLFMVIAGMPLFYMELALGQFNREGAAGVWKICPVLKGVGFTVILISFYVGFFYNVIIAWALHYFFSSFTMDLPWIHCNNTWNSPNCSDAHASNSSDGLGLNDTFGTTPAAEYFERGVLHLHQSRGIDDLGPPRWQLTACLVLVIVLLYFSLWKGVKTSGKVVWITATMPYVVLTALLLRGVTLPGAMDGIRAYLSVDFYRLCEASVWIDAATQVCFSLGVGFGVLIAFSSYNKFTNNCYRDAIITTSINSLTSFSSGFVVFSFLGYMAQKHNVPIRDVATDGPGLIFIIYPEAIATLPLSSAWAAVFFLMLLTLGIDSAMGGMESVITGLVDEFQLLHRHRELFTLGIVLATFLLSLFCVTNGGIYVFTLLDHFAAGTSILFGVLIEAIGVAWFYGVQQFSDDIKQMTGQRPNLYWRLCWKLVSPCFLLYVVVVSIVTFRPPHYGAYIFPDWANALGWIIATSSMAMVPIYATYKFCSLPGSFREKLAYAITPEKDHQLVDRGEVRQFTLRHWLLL
outcome_measure: IC50 (nM)
Numbers only; they are read as nM.

CN[C@@H](C)Cc1ccccc1 [methamphetamine] = 140

# evaluate next
Fill in the blank: the reported IC50 of CNC(C)Cc1cccs1 (centres unmarked) [methiopropamine, 1-(thiophen-2-yl)-2-methylaminopropane] is ____.
740

====

assay: Pharmacokinetic studies: drug concentrations in mouse blood and brain tissue; settings: C57BL/6, mouse, whole blood, ip, 3.75 mg/kg, Cmax in blood, mouse, single i.p. injection of 3.75 mg/kg methamphetamine
outcome_measure: Cmax

Please look up its Cmax: CN[C@@H](C)Cc1ccccc1
910 ng/mL

====

target: VMAT2 (Rattus norvegicus, UniProt Q01827); construct: Synaptic vesicles from rat cerebrum were isolated as described previously; from tissue; host or cells: rat cerebrum synaptic vesicles; test: Vesicular uptake of [3H]DA, [3H]NE and [3H]5-HT in rat brain synaptic vesicles; type: biochemical; settings: IC50 Synaptic Vesicles [3H]NE Uptake via VMAT2, rat brain synaptic vesicles
Sequence (Q01827 whole entry): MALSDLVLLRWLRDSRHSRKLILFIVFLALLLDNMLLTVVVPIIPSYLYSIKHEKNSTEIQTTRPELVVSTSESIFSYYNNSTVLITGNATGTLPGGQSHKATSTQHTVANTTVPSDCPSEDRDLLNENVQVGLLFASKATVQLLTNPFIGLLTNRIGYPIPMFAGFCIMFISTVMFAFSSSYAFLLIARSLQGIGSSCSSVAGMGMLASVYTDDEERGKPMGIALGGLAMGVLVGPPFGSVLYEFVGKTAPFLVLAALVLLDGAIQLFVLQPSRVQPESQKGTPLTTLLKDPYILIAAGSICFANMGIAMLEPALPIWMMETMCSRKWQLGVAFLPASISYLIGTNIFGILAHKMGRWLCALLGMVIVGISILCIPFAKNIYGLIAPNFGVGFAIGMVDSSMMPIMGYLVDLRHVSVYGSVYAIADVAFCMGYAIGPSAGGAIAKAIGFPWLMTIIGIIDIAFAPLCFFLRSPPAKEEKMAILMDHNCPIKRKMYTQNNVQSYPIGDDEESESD
outcome_measure: IC50 (µM)
Express the result in µM but write the number alone.

IC50 lookup needed for CNC(C)Cc1cccs1 (stereo not shown) , thanks.
47

====

target: VMAT2 (Rattus norvegicus); construct: Synaptic vesicles from rat cerebrum were isolated as described previously; from tissue; host or cells: rat cerebrum synaptic vesicles; experiment: Vesicular uptake of [3H]DA, [3H]NE and [3H]5-HT in rat brain synaptic vesicles; assay type: biochemical; details: IC50 Synaptic Vesicles [3H]DA Uptake via VMAT2, rat brain synaptic vesicles
outcome_measure: IC50

Which measured IC50 value corresponds to CNC(C)Cc1cccs1 (stereo not shown) ?
33.8 µM

====

target: VMAT2 (Rattus norvegicus, UniProt Q01827); construct: Synaptic vesicles from rat cerebrum were isolated as described previously; from tissue; host or cells: rat cerebrum synaptic vesicles; assay: Vesicular uptake of [3H]DA, [3H]NE and [3H]5-HT in rat brain synaptic vesicles; type: biochemical; details: IC50 Synaptic Vesicles [3H]5-HT Uptake via VMAT2, rat brain synaptic vesicles
outcome_measure: IC50 (µM)
The reply should contain only the number, in µM.

Fill in the blank: the reported IC50 of CNC(C)Cc1cccs1 (stereo not shown) is ____.
48.9
